- STUDY_SYSTEM: Cannabinoid receptor 1 (Rattus norvegicus, UniProt P20272)
- Sequence (P20272 whole entry): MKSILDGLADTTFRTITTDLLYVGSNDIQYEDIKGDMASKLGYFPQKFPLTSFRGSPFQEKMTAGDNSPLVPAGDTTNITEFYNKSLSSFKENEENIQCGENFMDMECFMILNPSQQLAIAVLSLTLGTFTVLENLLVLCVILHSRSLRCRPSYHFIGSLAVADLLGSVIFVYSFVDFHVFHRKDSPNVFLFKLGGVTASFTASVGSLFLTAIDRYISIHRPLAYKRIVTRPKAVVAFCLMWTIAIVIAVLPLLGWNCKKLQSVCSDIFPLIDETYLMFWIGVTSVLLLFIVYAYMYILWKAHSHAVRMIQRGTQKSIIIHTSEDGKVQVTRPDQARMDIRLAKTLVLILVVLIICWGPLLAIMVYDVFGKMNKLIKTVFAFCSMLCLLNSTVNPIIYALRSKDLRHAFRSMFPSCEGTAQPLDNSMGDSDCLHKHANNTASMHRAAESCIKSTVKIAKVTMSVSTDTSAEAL
- ASSAY_TEXT: Displacement of [3H]CP-55940 from CB1 receptor in rat brain
- Format: tissue-based
- CONDITION_CONTEXT: read-out: Ki
Entries annotated with measured pKi
By convention, pKi is the negative base-10 log of a molar concentration.

Example results:
COMPOUND | STUDY_SYSTEM | pKi
CC1(C)Oc2cc(CNC34CC5CC(CC(C5)C3)C4)cc(O)c2[C@@H]2C[C@@H](O)CC[C@H]21 | Cannabinoid receptor 1 (Rattus norvegicus, UniProt P20272) | 4.00
CC1(C)Oc2cc(CN3C4CC5CC3CC(C4)O5)cc(O)c2[C@@H]2C[C@H](O)CC[C@H]21 | Cannabinoid receptor 1 (Rattus norvegicus, UniProt P20272) | 5.00
CC1(C)Oc2cc(C(=O)NC34CC5CC(CC(C5)C3)C4)cc(O)c2[C@@H]2C[C@H](O)CC[C@H]21 | Cannabinoid receptor 1 (Rattus norvegicus, UniProt P20272) | 4.10
CC1(C)Oc2cc(C34CC5CC(CC(C5)O3)C4)cc(O)c2[C@@H]2C[C@H](O)CC[C@H]21 | Cannabinoid receptor 1 (Rattus norvegicus, UniProt P20272) | 7.64
CC1(C)Oc2cc(C(=O)NC34CC5CC(CC(C5)C3)C4)cc(O)c2[C@@H]2C[C@@H](O)CC[C@H]21 | Cannabinoid receptor 1 (Rattus norvegicus, UniProt P20272) | 3.43
CC1(C)Oc2cc(N3C4CC5CC3CC(C4)O5)cc(O)c2[C@@H]2C[C@@H](O)CC[C@H]21 | Cannabinoid receptor 1 (Rattus norvegicus, UniProt P20272) | 4.65
CC1(C)Oc2cc(C(=O)NC3C4CC5CC(C4)CC3C5)cc(O)c2[C@@H]2C[C@@H](O)CC[C@H]21 (some centres undefined) | Cannabinoid receptor 1 (Rattus norvegicus, UniProt P20272) | 4.00
CC1(C)Oc2cc(C34CC5CC(CC(C5)O3)C4)cc(O)c2[C@@H]2C[C@@H](O)CC[C@H]21 | Cannabinoid receptor 1 (Rattus norvegicus, UniProt P20272) | 6.26

Okay, now this compound:
Ask | Please give the measured pKi for this compound: `CC1(C)Oc2cc(CN3C4CC5CC3CC(C4)O5)cc(O)c2[C@@H]2C[C@@H](O)CC[C@H]21`
Reply | 3.90

---

- STUDY_SYSTEM: Cannabinoid receptor 2 (Mus musculus, UniProt P47936)
- Sequence (P47936 whole entry): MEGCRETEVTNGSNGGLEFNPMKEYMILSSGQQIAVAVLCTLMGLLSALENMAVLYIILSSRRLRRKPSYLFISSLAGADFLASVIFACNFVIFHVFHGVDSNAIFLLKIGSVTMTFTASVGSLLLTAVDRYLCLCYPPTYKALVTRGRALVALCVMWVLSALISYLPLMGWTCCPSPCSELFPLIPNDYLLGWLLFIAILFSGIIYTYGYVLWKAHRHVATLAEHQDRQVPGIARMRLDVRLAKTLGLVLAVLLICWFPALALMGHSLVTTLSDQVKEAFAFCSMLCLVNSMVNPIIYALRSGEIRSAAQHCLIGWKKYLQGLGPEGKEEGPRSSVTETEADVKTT
pKi: −log10 of the molar value.
Kind request: treat 5 as inclusive, so pKi at 5 or higher is 1.0, anything lower is 0.0.

COMPOUND | STUDY_SYSTEM | CLASS
CC1(C)Oc2cc(CNC3C4CC5CC(C4)CC3C5)cc(O)c2[C@@H]2C[C@H](O)CC[C@H]21 (stereo partly drawn) | Cannabinoid receptor 2 (Mus musculus, UniProt P47936) | 1.0

Read the next record carefully.
Ask | Reported pKi reaches at least 5 for `CC1(C)Oc2cc(N3C4CC5CC3CC(C4)O5)cc(O)c2[C@@H]2C[C@@H](O)CC[C@H]21` ?
Reply | 0.0

---

Entries annotated with measured pKi
- STUDY_SYSTEM: Cannabinoid receptor 2 (Mus musculus, UniProt P47936)
- ASSAY_TEXT: Displacement of [3H]CP-55940 from mouse CB2 receptor expressed in HEK293 cell membranes
By convention, pKi is the negative base-10 log of a molar concentration.

Example results:
MOLECULE | pKi
CC1(C)Oc2cc(C34CC5CC(CC(C5)O3)C4)cc(O)c2[C@@H]2C[C@@H](O)CC[C@H]21 | 6.27
CC1(C)Oc2cc(C(=O)NC34CC5CC(CC(C5)C3)C4)cc(O)c2[C@@H]2C[C@H](O)CC[C@H]21 | 6.30
CC1(C)Oc2cc(C(=O)NC3C4CC5CC(C4)CC3C5)cc(O)c2[C@@H]2C[C@H](O)CC[C@H]21 (stereo partly drawn) | 5.92
CC1(C)Oc2cc(CNC34CC5CC(CC(C5)C3)C4)cc(O)c2[C@@H]2C[C@H](O)CC[C@H]21 | 6.30

Ask | Please give the measured pKi for this molecule: CC1(C)Oc2cc(CNC3C4CC5CC(C4)CC3C5)cc(O)c2[C@@H]2C[C@@H](O)CC[C@H]21 (stereo partly drawn)
Reply | 5.12

Ask | Please give the measured pKi for this molecule: CC1(C)Oc2cc(C(=O)NC3C4CC5CC(C4)CC3C5)cc(O)c2[C@@H]2C[C@@H](O)CC[C@H]21 (stereo partly drawn)
Reply | 5.43

Ask | Please give the measured pKi for this molecule: `CC1(C)Oc2cc(C(=O)NC34CC5CC(CC(C5)C3)C4)cc(O)c2[C@@H]2C[C@@H](O)CC[C@H]21`
Reply | 5.12

Ask | Please give the measured pKi for this molecule: `CC1(C)Oc2cc(CN3C4CC5CC3CC(C4)O5)cc(O)c2[C@@H]2C[C@H](O)CC[C@H]21`
Reply | 5.06

These data points were gathered from ChEMBL document CHEMBL1212819.
